Quick reference: Intrinsic clearance half-life, Human hepatocytes of the listed items.
Tested on: cryopreserved human hepatocytes
ASSAY_INFO: Intrinsic clearance in cryopreserved human hepatocytes
Format: in vitro ADME
SETTINGS: 37° C.
Procedure: Cryopreserved hepatocytes from humans, rats (Sprague-Dawley males) and from mice (CD-1 males) were used for incubation at different times (0, 0.5, 1, 1.5, 2 hours) at 37° C. followed by HPLC-MS/MS detection. The aim was to verify the clearance time of the test substance on hepatocytes. The experiment was performed on a 96-well plate and the cryopreserved hepatocytes were thawed and resuspended in Krebs-Heinslet buffer (pH 7.3). […]

# example entries with known answers
STRUCTURE_SMILES: CCOc1nc2ccc(OC)cc2n1CCCNC(C)=O
STUDY_SYSTEM: cryopreserved human hepatocytes
REPORTED_RESULT: >120 min

STRUCTURE_SMILES: CCOc1nc2cc(Cl)c(OC)cc2n1CCCNC(C)=O
STUDY_SYSTEM: cryopreserved human hepatocytes
REPORTED_RESULT: >120 min

STRUCTURE_SMILES: CCOc1nc2cc(Cl)c(OC)cc2n1CCNC(C)=O
STUDY_SYSTEM: cryopreserved human hepatocytes
REPORTED_RESULT: >120 min

Then there is this compound:
query: Query (compound): `COc1ccc2cccc(CCNC(C)=O)c2c1` ; field requested: Intrinsic clearance half-life, Human hepatocytes
result: 48 min
